The following compounds are shown together with reported viability values.
- PROCEDURE SUMMARY: reducers of endogenous Her2 protein level, primary screen, SKBR3 breast tumor cells, AlphaScreen, ATP viability (AID 461);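 note: percent of carrier control wells set as 100% viability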
- ASSAY SETUP: 18-24 h, measured here: SKBR3 viability, ATP luminescence, at 10 µM

- COMPOUND: "N#C/C(C(=O)NCc1ccco1)=C1/SC(Cc2ccc(F)cc2)C(=O)N1c1ccccc1 (stereo not drawn)"
  viability: "112%"
- COMPOUND: "O=C(Cn1c(NCCO)nc2ccccc21)c1ccccc1"
  viability: "100%"
- COMPOUND: "COc1ccccc1NC(=O)CC(NCc1ccccc1)C(=O)O (stereo not drawn)"
  viability: "108%"

Prompt line: Quick one: viability of CCOC(=O)c1cnn(-c2sc(C(=O)OCC)c(C)c2C(=O)OCC)c1N ?
Response line: 95%

Prompt line: Quick one: viability of C=CCN1C(=O)/C(=C2/Sc3ccccc3N2C)SC1=Nc1c(C)n[nH]c1C ?
Response line: 107%

Prompt line: viability lookup needed for CCn1cc(C(=O)OCC(=O)OC2CC(C)CCC2C(C)C)c(=O)c2ccc(C)nc21 (stereo not drawn) , thanks.
Response line: 94.5%

Prompt line: What value of viability has been reported for the following compound? Cc1nc2sc(C(c3cccc(F)c3)N3CCC(C)CC3)c(O)n2n1 (stereo not drawn)
Response line: 88%

Prompt line: What value of measured viability is listed for Cc1ccc(-c2nnc(SC(C)C#N)n2N)cc1 (stereo not drawn) ?
Response line: 108%

Prompt line: Requested read-out: viability. Entry: CCOC(=O)CSc1nc2cc(C(=O)N3CCC(C(N)=O)CC3)ccc2c(=O)n1-c1ccccc1
Response line: 98%

Prompt line: Fill blank: measured viability of the compound CCOC(=O)c1c(C)[nH]c(C(=O)COC(=O)c2ccc(F)c(S(=O)(=O)N3CCOCC3)c2)c1C is ____.
Response line: 88.5%
